Listed next: entries and their corresponding self-cleavage kobs at 2500 uM GlcN6P.
B1: glmS ribozyme (parent)
chain: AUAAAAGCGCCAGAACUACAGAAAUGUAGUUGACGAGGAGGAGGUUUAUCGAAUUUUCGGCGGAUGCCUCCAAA

variants of: B1; assay: self-cleavage kobs at 2500 uM GlcN6P; higher = faster cleavage; RNA array; conditions: with glucosamine-6-phosphate
This sample holds only a part of the variants without activity.
measure: self-cleavage kobs at 2500 uM GlcN6P (s⁻¹)

>>> testvalue("AUAAAAGCGCCAGAACUACAGAAAUGUAGCUGACGAGGAGGAGGUUUAUCGAAUUUUCGGCGGAGGGCUCCAAA")
0.000128
>>> testvalue("AUAAAAGCGCCAAAACUACAGAAAUGUAGUUCACGAGGAGGAGGUUUAUCGAAUUUUCGGCGGAUGCCUCCAAA")
0.000136
>>> testvalue("AUAAAAGCGCCAGCUCUACAGAAAUGUAGUUGACGAGGAGGAGGUUUAUCGAAUUUUCGGCGGAUGCCUACAAA")
0.000232
>>> testvalue("AUAAAAGCGCCAGACCUACAGAAAUGUAGUUGACGAGGUGGAGGUUUAUCGAAUUUUCGGCGGAUGCCUCCAAA")
0.00216
>>> testvalue("AUAAAAGCGCCAGAACUACAGAAAUGUAGUUGACGAGGAGGAGGCUUAUCGAAUAUUCGGCGGACGCCUCCAAA")
"4.27e-05"
>>> testvalue("AUAAAAGCGCCCGAACUACAGAAAUGUACUUGACGAGGAGGAGGUUUAUCGAAUUUUCGGCGGAUGCCUCCAAA")
0.00139
>>> testvalue("AUAAAAGCGCCAGAACUACAGAAAUGUAUUUGACGAGGAGGAGGUUUAUCGAAUUUUGGGCGGAUGCCUCCAAA")
"8.3e-05"
>>> testvalue("AUAAAAGCGCCAGAACUACAGAAAUGUAGUUGACGAGGAGGAGGGCUAUCGAAUUUUCGGCGGAUGCCUCUAAA")
0.00445
>>> testvalue("AUAAAAGCGCCAGAACUACAGAAAUGUAGUUGACGAGGAGGAGGUUUAUCGAAUUUACGGCGGAUGCCUCUAAA")
0.000132
>>> testvalue("AUAAAAGCGCCAGAACUACAGAAAUGUAGUUGACGAGGAGGAGGUUUAUCGAAUUGUCGGCGGAUGCAUCCAAA")
"2.72e-05"
>>> testvalue("AUAAAAGCGCCAGAGCUACAGAAAUGUAGUUGACGAGGAGUAGGUUUAUCGAAUUGUCGGCGGAUGCCUCGAAA")
"8.85e-05"
>>> testvalue("AUAAAAGCGCCAGAGCUACAGAAAUGUAGUUGACGAGGAGGAGGUUUCUCGAAUUUUCGGCGGAUGCCUCCAAA")
0.000212
>>> testvalue("AUAAAAGCGCCAGAACUACAGAAAUGUAGGUUACGAGGAGGAGGUUUAUCGAAUUUUCGGCGGAUGCCUCCAAA")
0.000223
>>> testvalue("AUAAAAGCCCCAGAACUACAGAAAUGUAGUUGACGAGGAGGAGGUUUAUGGAAUUUUCGCCGGAUGCCUACAAA")
0.000123
>>> testvalue("AUAAAAGCGCCAGAACUACAGAAAUGUAGUUGACGAGGAGGACGUUUAUCGAAUUUUCGGCGGAUUACUCCAAA")
0.000168
>>> testvalue("UGGAUAGCGCCAGCACUACAGAAAUGUAGUUGACGAGGAGGAGGUUUAUCGAAUUUUCGGCGGAUGCCCCCAAA")
0.000526
>>> testvalue("AUAAAAGCGCCAGAACUACAGAAAUGUAAUUGACGAGGGGGAGGUUUAUCGAAUUUUCGGCGGAUGCCUCCAAA")
0.00297
>>> testvalue("AUAAAAGCGCCAGAACUACAGAAAUGUAUUUGACGAGGAGGAGGUUAAUCGAAUUUUCGGCGGAUGCCUCCAAA")
0.00104
>>> testvalue("AUAAAAGCGCCAGAACUACAGAAAUGUAGUUGACGAGGAGGAGGUUUAUCGUAGUUUCGGCGGAUGCCUCCAAA")
0.000107
>>> testvalue("AUAAAAGCGCCAGAAGUACAGAAAUGUAGAUGACGAGGAGGAGGUUUAUCGAAUUUUCGGCGGAUGCCUCCAAA")
0.000313
